Sourced from paper PMC9101642

Assay: Liver oxidative stress markers after treatment of MNU-induced rats
Format: in vivo, Wistar rats
Details: liver, dose 50 mg/kg
Label 1 (yes) when TBARS < 0.8 nmol/mg; otherwise 0 (no).

Item CC(=O)c1cc(C(=O)O[C@@H]2/C=C/C(=O)O[C@@H](O)CCC/C=C/[C@@H]3C[C@H](O)C[C@H]32)ccc1OCCN1CCCC(O)C1=O (some centres unmarked) : TBARS beneath 0.8 nmol/mg, strictly? 0 (no)

Just wondering, is TBARS of CN(N=O)C(N)=O [MNU, Methyl nitrosourea, reference compound] below 0.8 nmol/mg? 0 (no)

Check if TBARS falls below 0.8 nmol/mg for CC/C(=C(\c1ccc(O)cc1)c1ccc(OCCN(C)C)cc1)c1ccccc1 [Compound 4-OHT., 4-hydroxytamoxifen, reference compound] . 0 (no)

Hi there! Is TBARS for CNCCOc1ccc(C(=O)O[C@@H]2/C=C/C(=O)O[C@@H](O)CCC/C=C/[C@@H]3C[C@H](O)C[C@H]32)cc1C(C)=O below 0.8 nmol/mg, do you know? 1 (yes)

API: query returns whether the molecule falls strictly under 0.8 nmol/mg in TBARS. Query: CC(=O)c1cc(C(=O)O[C@@H]2/C=C/C(=O)O[C@@H](O)CCC/C=C/[C@@H]3C[C@H](O)C[C@H]32)ccc1OCCN(C)C 1 (yes)

----------
Below, each of the compounds is paired with its reported BIO value.
Assay: Pharmacokinetics study, oral bioavailability
Details: rat, oral 50 mg/kg

The cases that follow already have their BIO on record.
CC/C(=C(\c1ccc(O)cc1)c1ccc(OCCN(C)C)cc1)c1ccccc1 [Compound 4-OHT., 4-hydroxytamoxifen, reference compound]    94
CC(=O)c1cc(C(=O)O[C@@H]2/C=C/C(=O)O[C@@H](O)CCC/C=C/[C@@H]3C[C@H](O)C[C@H]32)ccc1OCCS(=O)(=O)O [Compound 3DPQ-4]    93
CC(=O)c1cc(C(=O)O[C@@H]2/C=C/C(=O)O[C@@H](O)CCC/C=C/[C@@H]3C[C@H](O)C[C@H]32)ccc1OCCN(C)C [Compound 3DPQ-2]    94

Consider the record given below.
// BIO lookup, key: CC(=O)c1cc(C(=O)OC2/C=C/C(=O)O[C@@H](O)CCC/C=C/[C@@H]3C[C@H](O)C[C@@H]23)ccc1OCCN1CCC=C(C(=O)O)C1 (stereo partly shown) [Compound 3DPQ-3] 93

----------
Test system: MRC-5 human lung fibroblast cell lines
# reported IC50; entries follow

O=C(c1ccccc1)c1ccccc1C(=O)c1ccccc1    > 100 µM
c1ccc(-n2c3ccccc3c3ccccc32)cc1    > 100 µM
COc1ccc(C(C#N)=C(c2ccccc2)c2ccccc2)cc1    14.2 µM
O=C(O)c1ccccc1-n1c2ccccc2c2ccccc21    > 100 µM

Suppose we examine the molecule O=c1c(-c2ccc(O)cc2)coc2cc(O)cc(O)c12 ; what IC50 value has been reported? > 100 µM

----------
System: MCF-7 cells
Test: Cell cycle distribution by flow cytometry
Format: cell-based, human
Settings: 0.1 nM, 24 h
Quick reference: Cell Cycle (%) S of the listed items.

Guide cases for Cell Cycle (%) S, answers given:
CC/C(=C(\c1ccc(O)cc1)c1ccc(OCCN(C)C)cc1)c1ccccc1 [Compound 4-OHT., 4-hydroxytamoxifen, reference compound]    18.76 ± 0.41 *^,†,§ %
CC(=O)c1cc(C(=O)O[C@@H]2/C=C/C(=O)O[C@@H](O)CCC/C=C/[C@@H]3C[C@H](O)C[C@H]32)ccc1OCCN1CCCC(O)C1=O (stereo partly drawn)    16.96 ± 1.23 *^,†,‡,§ %
CC(=O)c1cc(C(=O)O[C@@H]2/C=C/C(=O)O[C@@H](O)CCC/C=C/[C@@H]3C[C@H](O)C[C@H]32)ccc1OCCN1CCCCC1    11.96 ± 2.41 *^,†,‡,§ %
C[C@]12CC[C@@H]3c4ccc(O)cc4CC[C@H]3[C@@H]1CC[C@@H]2O [Compound E2, 17β-estradiol, reference compound]    28.15 ± 0.52 *^,‡,§ %
CC(=O)c1cc(C(=O)OC2/C=C/C(=O)O[C@@H](O)CCC/C=C/[C@@H]3C[C@H](O)C[C@@H]23)ccc1OCCN1CCC=C(C(=O)O)C1 (stereo partly drawn)    8.98 ± 1.64 *^,†,‡,§ %

Tell me reported Cell Cycle (%) S for CC(=O)c1cc(C(=O)O[C@@H]2/C=C/C(=O)O[C@@H](O)CCC/C=C/[C@@H]3C[C@H](O)C[C@H]32)ccc1OCCN(C)C , tested with MCF-7 cells. 11.88 ± 0.87 *^,†,‡,§ %

----------
Listing of recorded logD at 30 min by entry.
Test: Lipophilicity by shake-flask method
Conditions: n-octanol/phosphate buffer, pH 7.4

CC(=O)c1cc(C(=O)O[C@@H]2/C=C/C(=O)O[C@@H](O)CCC/C=C/[C@@H]3C[C@H](O)C[C@H]32)ccc1OCCN1CC(C(=O)O)=CCC1=O    2.02

Could you now look at the following molecule, please?
Value lookup for logD at 30 min; key = CC/C(=C(\c1ccc(O)cc1)c1ccc(OCCN(C)C)cc1)c1ccccc1 [Compound 4-OHT., 4-hydroxytamoxifen, reference compound] 3.64

----------
Target: ERα (Homo sapiens, UniProt P03372)
Sequence (P03372 whole entry): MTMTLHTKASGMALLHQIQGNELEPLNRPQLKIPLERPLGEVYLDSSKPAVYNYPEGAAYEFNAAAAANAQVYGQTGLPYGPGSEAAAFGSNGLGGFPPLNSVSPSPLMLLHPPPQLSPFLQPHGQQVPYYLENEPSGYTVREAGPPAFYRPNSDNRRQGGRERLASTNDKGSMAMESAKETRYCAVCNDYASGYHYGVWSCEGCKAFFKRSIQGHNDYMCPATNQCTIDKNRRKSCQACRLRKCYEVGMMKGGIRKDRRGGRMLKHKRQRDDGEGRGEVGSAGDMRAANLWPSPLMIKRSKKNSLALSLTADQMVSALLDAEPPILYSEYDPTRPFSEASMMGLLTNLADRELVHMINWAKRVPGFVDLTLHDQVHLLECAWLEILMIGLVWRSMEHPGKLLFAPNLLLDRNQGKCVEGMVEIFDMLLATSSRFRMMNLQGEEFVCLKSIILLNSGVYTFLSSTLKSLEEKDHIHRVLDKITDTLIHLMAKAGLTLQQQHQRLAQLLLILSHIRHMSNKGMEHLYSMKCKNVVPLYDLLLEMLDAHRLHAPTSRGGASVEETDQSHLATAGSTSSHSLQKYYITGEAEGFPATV
Assay: ERα down-regulation immunofluorescence assay in MCF-7
Format: cell-based
Conditions: ERα downregulation measured in MCF-7; read-out: MCF-7 DR (IC50 nM)
IC50 values, listed per item

CC(=O)c1cc(C(=O)OC2/C=C/C(=O)O[C@@H](O)CCC/C=C/[C@@H]3C[C@H](O)C[C@@H]23)ccc1OCCN1CCC=C(C(=O)O)C1 (some centres unmarked)    > 100 nM
CC(=O)c1cc(C(=O)O[C@@H]2/C=C/C(=O)O[C@@H](O)CCC/C=C/[C@@H]3C[C@H](O)C[C@H]32)ccc1OCCN(C)C    > 100 nM
CC(=O)c1cc(C(=O)O[C@@H]2/C=C/C(=O)O[C@@H](O)CCC/C=C/[C@@H]3C[C@H](O)C[C@H]32)ccc1OCCN1CCCC(O)C1=O (some centres unmarked)    > 100 nM
CC(=O)c1cc(C(=O)O[C@@H]2/C=C/C(=O)O[C@@H](O)CCC/C=C/[C@@H]3C[C@H](O)C[C@H]32)ccc1OCCN1CCCC2CCCNC21 (some centres unmarked)    > 100 nM
CC(=O)c1cc(C(=O)O[C@@H]2/C=C/C(=O)O[C@@H](O)CCC/C=C/[C@@H]3C[C@H](O)C[C@H]32)ccc1OCCN1C=Cc2ccccc2C1    > 100 nM

Tell me the measured IC50 of CC(=O)c1cc(C(=O)OC2C=CC(=O)OC(O)CCCC=CC3CC(O)CC32)ccc1OCCN1C(=O)CCC1=O (centres unmarked) , please. > 100 nM

Value lookup for IC50; key = CNCCOc1ccc(C(=O)O[C@@H]2/C=C/C(=O)O[C@@H](O)CCC/C=C/[C@@H]3C[C@H](O)C[C@H]32)cc1C(C)=O > 100 nM

I have this compound here, CC(=O)c1cc(C(=O)O[C@@H]2/C=C/C(=O)O[C@@H](O)CCC/C=C/[C@@H]3C[C@H](O)C[C@H]32)ccc1OCCN1CC(C(=O)O)=CCC1=O , and I need its recorded IC50. > 100 nM

----------
Each entry below carries its reported TBARS.
Assay: Liver oxidative stress markers after treatment of MNU-induced rats
Assay type: in vivo, Wistar rats
Settings: liver, dose 5 mg/kg
Report as: number unit

Known TBARS results, listed for orientation:
CC(=O)c1cc(C(=O)O[C@@H]2/C=C/C(=O)O[C@@H](O)CCC/C=C/[C@@H]3C[C@H](O)C[C@H]32)ccc1OCCN1CCCC(O)C1=O (stereo partly drawn)    0.92 nmol/mg
CC(=O)c1cc(C(=O)O[C@@H]2/C=C/C(=O)O[C@@H](O)CCC/C=C/[C@@H]3C[C@H](O)C[C@H]32)ccc1OCCS(=O)(=O)O    0.65 ± 0.21 nmol/mg

Field request: TBARS | item: CC(=O)c1cc(C(=O)O[C@@H]2/C=C/C(=O)O[C@@H](O)CCC/C=C/[C@@H]3C[C@H](O)C[C@H]32)ccc1OCCN1CC(C(=O)O)=CCC1=O 0.96 nmol/mg

Given CC(=O)c1cc(C(=O)OC2/C=C/C(=O)O[C@@H](O)CCC/C=C/[C@@H]3C[C@H](O)C[C@@H]23)ccc1OCCN1CCC=C(C(=O)O)C1 (stereo partly drawn) , state its recorded TBARS. 0.24 nmol/mg

# TBARS lookup, item CC(=O)c1cc(C(=O)O[C@@H]2/C=C/C(=O)O[C@@H](O)CCC/C=C/[C@@H]3C[C@H](O)C[C@H]32)ccc1OCCN(C)C 0.56 nmol/mg

Reported TBARS, compound CNCCOc1ccc(C(=O)O[C@@H]2/C=C/C(=O)O[C@@H](O)CCC/C=C/[C@@H]3C[C@H](O)C[C@H]32)cc1C(C)=O : ____ 0.96 nmol/mg
